Each item that follows carries a reported melting point.

N#Cc1cccc2c1COc1ccc(/C=C/c3ccc4cc(F)c(F)cc4n3)cc1C2SCCC(=O)O (stereo not shown) : 261 to 264 °C (dec.)
O=C([O-])CC1(CSC2c3ccccc3COc3ccc(/C=C/c4ccc5c(F)c(F)c(F)cc5n4)cc32)CC1.[Na+] (stereo not shown) : 195 to 198 °C
C[C@@H](CSC1c2ccccc2COc2ccc(/C=C/c3ccc4ccc(Cl)cc4n3)cc21)C(=O)[O-].[Na+] (stereo partly shown) : 207 to 217 °C
O=C(O)C(F)(F)F.O=C(O)CC1(CSC2c3cc(/C=C/c4ccc5cc(F)c(F)cc5n4)ccc3OCc3c(F)cccc32)CC1 (stereo not shown) : 174 to 179 °C
O=C([O-])CCSC1c2ccccc2COc2ccc(/C=C/c3ccc4c(F)cc(F)cc4n3)cc21.[Na+] (stereo not shown) : 210 to 213 °C

Exam item: Endpoint output: melting point of O=C([O-])CC1(CSC2c3ccccc3COc3ccc(/C=C/c4ccc5cc(F)c(F)cc5n4)cc32)CC1.[Na+] (stereo not shown) . Value?
Marked response: 137 to 139 °C

Exam item: Endpoint output: melting point of O=C([O-])CCSC1c2ccccc2COc2ccc(/C=C/c3ccc4ccc(F)cc4n3)cc21.[Na+] (stereo not shown) . Value?
Marked response: 160 to 163 °C

---

parameterMeasured: melting point

Example compounds with recorded melting point:
O=C([O-])c1ccc(SC2c3ccccc3COc3ccc(/C=C/c4ccc5cc(F)c(F)cc5n4)cc32)cc1.[Na+] (stereo not shown) : 285 to 287 °C (dec.)
O=C(O)CCSC1c2cc(/C=C/c3ccc4cc(F)c(Cl)cc4n3)ccc2OCc2c(F)cccc21 (stereo not shown) : 238 to 241 °C
Cc1ccc(/C=C/c2ccc3c(c2)C(SCCC(=O)[O-])c2ccccc2CO3)nc1C(C)C.[Na+] (stereo not shown) : 137 to 139 °C
O=C([O-])CCSC1c2ccccc2COc2ccc(/C=C/c3ccc4c(F)cccc4n3)cc21.[Na+] (stereo not shown) : 150 to 152 °C
O=C(O)CCSC1c2cc(/C=C/c3ccc4cc(F)c(F)cc4n3)ccc2OCc2c(F)cccc21 (stereo not shown) : 224 to 227 °C
O=C([O-])CCSC1c2ccccc2CCc2ccc(/C=C/c3ccc4cc(F)c(F)cc4n3)cc21.[Na+] (stereo not shown) : 179 to 182 °C
CCC(CSC1c2ccccc2COc2ccc(/C=C/c3ccc4cc(F)c(F)cc4n3)cc21)C(=O)[O-].[Na+] (stereo not shown) : 209 to 218 °C
O=C(CSC1c2ccccc2COc2ccc(/C=C/c3ccc4cc(F)c(F)cc4n3)cc21)NS(=O)(=O)C(F)(F)F.[Na] (stereo not shown) : 182 to 186 °C
C[C@@H](CSC1c2ccccc2COc2ccc(/C=C/c3ccc4cc(F)c(F)cc4n3)cc21)C(=O)[O-].[Na+] (stereo partly shown) : 196 to 220 °C
O=C([O-])CC1(CSC2c3ccccc3COc3ccc(/C=C/c4nc5cc(F)ccc5s4)cc32)CC1.[Na+] (stereo not shown) : 155 to 157 °C

Exam item: Endpoint output: melting point of O=C(O)CCSC1c2ccccc2COc2ccc(/C=C/c3ccc4ccc(Cl)cc4n3)cc21 (stereo not shown) . Value?
Marked response: 195 to 198 °C

Exam item: Endpoint output: melting point of O=C(O)CC1(CSC2c3ccccc3COc3ccc(/C=C/c4ccc5ccc(Cl)cc5n4)cc32)CC1 (stereo not shown) . Value?
Marked response: 204 to 206 °C

Exam item: Endpoint output: melting point of O=C([O-])CCSC1c2ccccc2COc2ccc(/C=C/c3nc4cc(F)ccc4s3)cc21.[Na+] (stereo not shown) . Value?
Marked response: > 300 °C

Exam item: Endpoint output: melting point of O=C([O-])c1ccccc1SC1c2ccccc2COc2ccc(/C=C/c3ccc4cc(F)c(F)cc4n3)cc21.[Na+] (stereo not shown) . Value?
Marked response: 183 to 186 °C

Exam item: Endpoint output: melting point of O=C([O-])CC1(CSC2c3ccccc3COc3ccc(/C=C/c4ccc5ccc(F)cc5n4)cc32)CC1.[Na+] (stereo not shown) . Value?
Marked response: 149 to 152 °C

Exam item: Endpoint output: melting point of O=C([O-])CCSC1c2cc(/C=C/c3ccc4cc(F)c(F)cc4n3)ccc2COc2ccccc21.[Na+] (stereo not shown) . Value?
Marked response: > 300 °C

---

Each item that follows carries a reported Ki.
- assayedSystem: Leukotriene D4 receptor (Cavia porcellus, UniProt Q2NNR5)
- Construct: As a receptor sample, a lung cell membrane fraction from guinea pigs was used; from tissue; host or cells: lung membrane fraction of Hartley male guinea pigs
- Sequence (Q2NNR5 1-340): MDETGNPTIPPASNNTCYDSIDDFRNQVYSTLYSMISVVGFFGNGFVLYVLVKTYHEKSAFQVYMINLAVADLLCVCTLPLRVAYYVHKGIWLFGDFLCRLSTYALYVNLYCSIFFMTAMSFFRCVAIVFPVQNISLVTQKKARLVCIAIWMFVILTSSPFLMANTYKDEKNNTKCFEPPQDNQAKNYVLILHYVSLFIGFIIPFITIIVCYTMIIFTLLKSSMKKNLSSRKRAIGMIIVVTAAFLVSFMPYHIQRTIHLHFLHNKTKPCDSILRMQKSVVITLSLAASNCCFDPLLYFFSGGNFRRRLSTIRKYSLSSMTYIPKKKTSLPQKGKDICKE
- assaySummary: Leukotriene D4 receptor binding test
- conditionsUsed: binding inhibition constant (Ki) vs [3H] LTD4 0.2 nM; lung cell membrane fraction from guinea pigs; 25° C. for 30 minutes; read-out: pKi value (converted)
Use nM as the unit, but write only the number.

N#Cc1cccc2c1COc1ccc(/C=C/c3ccc4cc(F)c(F)cc4n3)cc1C2SCCC(=O)[O-].[Na+] (stereo not shown) : 0.631

Exam item: Entry O=C([O-])CC1(CSC2c3ccccc3COc3ccc(/C=C/c4ccc5c(F)c(F)c(F)cc5n4)cc32)CC1.[Na+] (stereo not shown) , system Leukotriene D4 receptor (Cavia porcellus, UniProt Q2NNR5): what Ki was measured?
Marked response: 0.398

Exam item: Entry CCC(CSC1c2ccccc2COc2ccc(/C=C/c3ccc4cc(F)c(F)cc4n3)cc21)C(=O)[O-].[Na+] (stereo not shown) , system Leukotriene D4 receptor (Cavia porcellus, UniProt Q2NNR5): what Ki was measured?
Marked response: 0.158

Exam item: Entry CC(C)(CC(=O)O)SC1c2ccccc2COc2ccc(/C=C/c3ccc4cc(F)c(F)cc4n3)cc21 (stereo not shown) , system Leukotriene D4 receptor (Cavia porcellus, UniProt Q2NNR5): what Ki was measured?
Marked response: 0.501

---

Each item that follows carries a reported melting point.

Example compounds with recorded melting point:
O=C([O-])CC1(CSC2c3ccccc3COc3ccc(/C=C/c4ccc5c(F)cccc5n4)cc32)CC1.[Na+] (stereo not shown) : 142 to 144 °C
C#Cc1cccc2c1COc1ccc(/C=C/c3ccc4cc(F)c(F)cc4n3)cc1C2SCCC(=O)[O-].[Na+] (stereo not shown) : 186 to 189 °C
C[C@@H](CSC1c2ccccc2COc2ccc(/C=C/c3ccc4ccc(F)cc4n3)cc21)C(=O)[O-].[Na+] (stereo partly shown) : 195 to 205 °C
O=C([O-])CCSC1c2ccccc2COc2ccc(/C=C/c3ccc4cc(F)c(F)cc4n3)cc21.[Na+] (stereo not shown) : 213 to 216 °C
O=C([O-])CCSC1c2ccccc2COc2ccc(/C=C/c3cc(Cl)c4ccccc4n3)cc21.[Na+] (stereo not shown) : 140 to 142 °C
C[C@H](CSC1c2ccccc2COc2ccc(/C=C/c3ccc4cc(F)c(F)cc4n3)cc21)C(=O)[O-].[Na+] (stereo partly shown) : 193 to 216 °C

Exam item: Endpoint output: melting point of O=C([O-])CC1(CSC2c3ccccc3COc3ccc(/C=C/c4ccc5c(F)cc(F)cc5n4)cc32)CC1.[Na+] (stereo not shown) . Value?
Marked response: 149 to 152 °C

---

parameterMeasured: melting point

Example molecules with recorded melting point:
O=C([O-])CCSC1c2ccccc2COc2ccc(/C=C/c3nc4cc(F)ccc4o3)cc21.[Na+] (centres unmarked) : 247 to 250 °C
O=C(O)CCSC1c2ccccc2COc2ccc(/C=C/c3ccc4c(n3)CCCC4)cc21 (centres unmarked) : 150 to 153 °C
N#Cc1cccc2c1COc1ccc(/C=C/c3ccc4cc(F)c(F)cc4n3)cc1C2SCCC(=O)[O-].[Na+] (centres unmarked) : 179 to 182 °C
O=C(O)CC1(CSC2c3cc(/C=C/c4ccc5cc(F)c(Cl)cc5n4)ccc3OCc3c(F)cccc32)CC1 (centres unmarked) : 237 to 239 °C
O=C([O-])CCSC1c2ccccc2COc2ccc(/C=C/c3ccc4c(F)c(F)c(F)cc4n3)cc21.[Na+] (centres unmarked) : 235 to 237 °C

Exam item: Endpoint output: melting point of O=C([O-])CCSC1c2ccc(F)cc2COc2ccc(/C=C/c3ccc4cc(F)c(F)cc4n3)cc21.[Na+] (centres unmarked) . Value?
Marked response: 243 to 250 °C

Exam item: Endpoint output: melting point of O=C(O)CCSC1c2ccccc2COc2ccc(/C=C/c3ccc4cc(F)c(F)cc4n3)cc21 (centres unmarked) . Value?
Marked response: 213 to 216 °C

Exam item: Endpoint output: melting point of O=C([O-])c1cccc(SC2c3ccccc3COc3ccc(/C=C/c4ccc5cc(F)c(F)cc5n4)cc32)c1.[Na+] (centres unmarked) . Value?
Marked response: 184 to 188 °C
